pIC50 values for Histone deacetylase 8 (Homo sapiens), compiled from several publications.
pIC50: −log10 of the molar value.
metricName: pIC50

compoundstructure=C/C=C1\NC(=O)c2cccc(n2)CNC(=O)C[C@@H](/C=C/CCSC(C)=O)OC(=O)[C@H](C(C)C)NC1=O assayedtarget="Histone deacetylase 8 (Homo sapiens)" signqualifier== recordedresult=7.41
compoundstructure=C/C=C1\NC(=O)c2cccc(n2)CNC(=O)C[C@@H](/C=C/CCSC(=O)CCCCCCC)OC(=O)[C@H](Cc2ccccc2)NC1=O assayedtarget="Histone deacetylase 8 (Homo sapiens)" signqualifier== recordedresult=7.24
compoundstructure=CCN(CC)S(=O)(=O)c1cccc(-c2nnc(Sc3ccc(C(=O)NO)cc3)n2N)c1 assayedtarget="Histone deacetylase 8 (Homo sapiens)" signqualifier== recordedresult=6.31
compoundstructure=C/C=C1\NC(=O)c2cccc(n2)CNC(=O)C[C@@H](/C=C/CCSC(=O)CCCCC)OC(=O)[C@H](C(C)C)NC1=O assayedtarget="Histone deacetylase 8 (Homo sapiens)" signqualifier== recordedresult=6.77
compoundstructure=O=C(/C=C/c1ccc(OCCN2CCOCC2)cc1Oc1cccc(Cl)c1)NO assayedtarget="Histone deacetylase 8 (Homo sapiens)" signqualifier=≥ recordedresult=7.00

====

pIC50: −log10 of the molar value.
pIC50 values for Histone deacetylase 8 (Homo sapiens, UniProt Q9BY41), compiled from several publications.
metricName: pIC50

molecule="CC[C@@H]1Cc2c(F)cc(C(=O)NO)cc2CN1CC1COC1 (single isomer, unassigned)" recordedresult="4.00 to 5.00"
molecule="O=C(NO)c1cc(F)c2c(c1)CCN(C[C@@H]1CCCCO1)C2 (single isomer, unassigned)" recordedresult="4.00 to 5.00"
molecule="C[C@H]1C[C@@H]2c3c(F)cc(C(=O)NO)cc3CCN2C1 (single isomer, unassigned)" recordedresult="5.00 to 6.00"
molecule=C=C1NC(=O)c2cc(SC)cc(n2)CNC(=O)C[C@@H](/C=C/CCSC(C)=O)OC(=O)[C@H](C(C)C)NC1=O recordedresult=7.21
molecule=O=C(NO)c1ccc2ccn(Cc3ccc(Cl)c(Cl)c3)c2c1 recordedresult="> 7.00"
molecule="CC[C@@H]1N(Cc2ccc(C(=O)NO)cc2F)CC12CCCC2 (single isomer, unassigned)" recordedresult="5.00 to 6.00"
molecule="CC[C@H]1Cc2c(F)cc(C(=O)NO)cc2CN1C1CCC1 (single isomer, unassigned)" recordedresult="4.00 to 5.00"
molecule=C/C=C1\NC(=O)c2cccc(n2)CNC(=O)C[C@@H](/C=C/CCSC(=O)CCC)OC(=O)[C@H](C(C)C)NC1=O recordedresult=7.17
molecule=C/C=C1\NC(=O)c2nc(ccc2SC)CNC(=O)C[C@@H](/C=C/CCSC(=O)CCCCCCC)OC(=O)[C@H](C(C)C)NC1=O recordedresult=7.55
molecule="CN1CC2(CCC(N3CCc4cc(C(=O)NO)cc(F)c4C3)C2)C1 (stereo not drawn)" recordedresult="< 4.00"
molecule=O=C(NO)c1cnc2c(c1)CCN(C1CC3(CCCC3)C1)C2 recordedresult="5.00 to 6.00"
molecule=O=C(NO)c1cc(F)c2c(c1)CCN(C1CC3(CNC3)C1)C2 recordedresult="5.00 to 6.00"
molecule=Nc1nc2cc(-c3nnn(Cc4ccc(-c5nnc(C(F)F)o5)cn4)n3)ccc2o1 recordedresult="< 3.70"
molecule=C/C=C1\NC(=O)c2nc(cc(SC)n2)CNC(=O)C[C@@H](/C=C/CCSC(C)=O)OC(=O)[C@H](C(C)C)NC1=O recordedresult=7.28
molecule="CC[C@H]1Cc2c(F)cc(C(=O)NO)cc2CN1C1COC1 (single isomer, unassigned)" recordedresult="4.00 to 5.00"

====

IC50 values for Histone deacetylase 8 (Homo sapiens), compiled from several publications.
metricName: IC50 (µM)

compoundstructure=CCN(CC)S(=O)(=O)c1cccc(-c2nnc(Sc3ccc(C(=O)NO)cc3)n2C)c1 metricname=IC50 signqualifier== recordedresult=0.419
compoundstructure=O=C(NO)c1ccc2ccn(Cc3ccc4c(c3)OCO4)c2c1 metricname=IC50 signqualifier=< recordedresult=1
compoundstructure=C/C=C1\NC(=O)c2cc(F)cc(n2)CNC(=O)C[C@@H](/C=C/CCSC(C)=O)OC(=O)[C@H](Cc2ccc(O)cc2)NC1=O metricname=IC50 signqualifier== recordedresult=0.034
compoundstructure=C/C=C1\NC(=O)c2nc(ccc2SC)CNC(=O)C[C@@H](/C=C/CCSC(=O)CCCCC)OC(=O)[C@H](C(C)C)NC1=O metricname=IC50 signqualifier== recordedresult=0.028
compoundstructure=COc1ccc(/C=C/C(=O)NO)cc1 metricname=IC50 signqualifier== recordedresult=2.57

====

pIC50 values for Histone deacetylase 8 (Homo sapiens), compiled from several publications.
pIC50: −log10 of the molar value.
Quick rule for you: pIC50 at 7 or higher means Condition met, lower means Condition not met.

compoundstructure=O=C(/C=C/c1ccccc1Oc1ccccc1)NO group="Condition met"
compoundstructure=FC(F)c1nnc(-c2ccc(Cn3cc(-c4ccc(NC5=NCCN5)cc4)nn3)cc2)o1 group="Condition not met"
compoundstructure=C/C=C1\NC(=O)c2cc(F)cc(n2)CCNC(=O)C[C@@H](/C=C/CCSC(C)=O)OC(=O)[C@H](C(C)C)NC1=O group="Condition met"
compoundstructure=Cn1c(Sc2c(F)cc(C(=O)NO)cc2F)nnc1C(c1ccccc1)c1ccccc1 group="Condition not met"
compoundstructure=C/C=C1\NC(=O)c2cc(F)cc(n2)CNC(=O)C[C@@H](/C=C/CCSC=O)OC(=O)[C@H](C(C)C)NC1=O group="Condition met"

====

pIC50: −log10 of the molar value.
pIC50 values for Histone deacetylase 8 (Homo sapiens, UniProt Q9BY41), compiled from several publications.
metricName: pIC50

compound=O=C(NO)c1ccc2ccn(Cc3ccccc3Cl)c2c1 assayedtarget="Histone deacetylase 8 (Homo sapiens, UniProt Q9BY41)" metricname=pIC50 recordedresult="> 7.00"
compound=C/C=C1\NC(=O)c2nc(ccc2F)CNC(=O)C[C@@H](/C=C/CCSC(C)=O)OC(=O)[C@H](C)NC1=O assayedtarget="Histone deacetylase 8 (Homo sapiens, UniProt Q9BY41)" metricname=pIC50 recordedresult=7.54
compound=C/C=C1\NC(=O)c2cccc(n2)CNC(=O)C[C@@H](/C=C/CCSC(=O)CCCCCCC)OC(=O)[C@H](Cc2cccc3ccccc23)NC1=O assayedtarget="Histone deacetylase 8 (Homo sapiens, UniProt Q9BY41)" metricname=pIC50 recordedresult=7.05
compound="C[C@H]1C[C@H]2c3c(F)cc(C(=O)NO)cc3CCN2C1 (single isomer, unassigned)" assayedtarget="Histone deacetylase 8 (Homo sapiens, UniProt Q9BY41)" metricname=pIC50 recordedresult="5.00 to 6.00"
compound=O=C(NO)c1ccc2ccn(Cc3cccc(NS(=O)(=O)c4ccccc4)c3)c2c1 assayedtarget="Histone deacetylase 8 (Homo sapiens, UniProt Q9BY41)" metricname=pIC50 recordedresult="> 6.00"
compound=FC(F)c1nnc(-c2ccc(Cn3cnc(-c4ccc(NC5=NCCN5)cc4)c3)cc2)o1 assayedtarget="Histone deacetylase 8 (Homo sapiens, UniProt Q9BY41)" metricname=pIC50 recordedresult="< 3.70"

====

IC50 values for Histone deacetylase 8 (Homo sapiens, UniProt Q9BY41), compiled from several publications.
metricName: IC50 (nM)

compoundstructure=COc1ccc(Oc2ccccc2/C=C/C(=O)NO)cc1 signqualifier=≤ recordedresult=100
compoundstructure=C/C=C1\NC(=O)c2cccc(n2)CNC(=O)C[C@@H](/C=C/CCSC(=O)CCCCCCC)OC(=O)[C@H](CC(C)C)NC1=O signqualifier== recordedresult=33
compoundstructure=O=C(NO)c1ccc2ccn(Cc3ccc(Cl)cc3)c2c1 signqualifier=< recordedresult=100
compoundstructure=C/C=C1\NC(=O)c2ccc(SC)c(n2)CNC(=O)C[C@@H](/C=C/CCSC(=O)CCCCCCC)OC(=O)[C@H](CC)NC1=O signqualifier== recordedresult=39
compoundstructure=C/C=C1\NC(=O)c2cccc(n2)NC(=O)C[C@@H](/C=C/CCSC(C)=O)OC(=O)[C@H](C(C)C)NC1=O signqualifier== recordedresult=47
compoundstructure=O=C(NO)c1cc(F)c(Cn2nnc(-c3cccs3)n2)c(F)c1 signqualifier== recordedresult=1080
